meta.source: PubChem BioAssay (NCI)

- System: OVCAR-4 ovarian
- assay.comment: NCI-60 one-dose screen, 48 h
- conditions.used: 10 µM unless noted
Compounds without any hit were thinned out: in the full panel of roughly 83,000, 20% have a hit. Calls of active or inactive are those of the source. The calls were made as follows: active = growth percent below 10; inactive = the rest.
Your response should consist of one outcome taken from true (1) (active), false (0) (inactive)

As a guide, the following entries are already answered.
[
  {
    "smiles.text": "O=C(CSc1nc2sc3c(c2c(=O)n1-c1ccccc1)CCCCC3)N/N=C/c1ccc(F)cc1",
    "category": "true (1)"
  },
  {
    "smiles.text": "CCCCCCCCCCCCCCCCCCOc1ccccc1CC(=O)OCC[N+]1(C)CCCC1",
    "category": "false (0)"
  }
]

Switching to the query record.
Kindly provide the recorded test outcome for the following compound: CCOP(=O)(OCC)c1nc(-c2ccccc2)oc1NCc1cccnc1
false (0)
